# Method: Photostability: xenon arc weathering of chromophore solutions, LCMS analysis
# Format: physicochemical
Assay metric: Formation of the Minus-HF degradation product (in words)

{"Input smiles": "CCOC(=O)CCCOc1cc2oc(-c3ccc(C(C)(C)C)cc3)c(C3=C(c4cc(-c5sc(C(C)(C)C)cc5C)sc4-c4sc(C(C)(C)C)cc4C)C(F)(F)C(F)(F)C3(F)F)c2cc1OCCCC(=O)OCC", "Result": "does not occur"}
{"Input smiles": "CCOC(=O)CCCOc1cc2oc(-c3ccc(C(C)(C)C)cc3)c(C3=C(c4cc(-c5ccc(C(C)(C)C)s5)sc4-c4sc(C(C)(C)C)cc4C)C(F)(F)C(F)(F)C3(F)F)c2cc1OCCCC(=O)OCC", "Result": "does not occur"}
{"Input smiles": "COc1cc2oc(-c3ccc(C(C)(C)C)cc3)c(C3=C(c4cc(-c5ccc(C(C)(C)C)s5)sc4-c4sc(C(C)(C)C)cc4C)C(F)(F)C(F)(F)C3(F)F)c2cc1OC", "Result": "does not occur"}

* * *

# Method: Photostability: xenon arc weathering of chromophore solutions, LCMS analysis
# Format: physicochemical
# Measurement setup: 10 wt %; interpolated to 0.5 MJ/m^2 of energy exposure at 340 nm
Assay metric: Ratio of chromophore remaining relative to S340
No unit in the answer, please; the number alone is enough.

stdin: Report Ratio of chromophore remaining relative to S340 for CCOC(=O)CCCOc1cc2oc(-c3ccc(C(C)(C)C)cc3)c(C3=C(c4cc(-c5ccc(C(C)(C)C)s5)sc4-c4ccc(C(C)(C)C)s4)C(F)(F)C(F)(F)C3(F)F)c2cc1OCCCC(=O)OCC
stdout: 0.79

stdin: Kindly indicate its recorded Ratio of chromophore remaining relative to S340. Item: COCCCOc1cc2oc(-c3ccc(C(C)(C)C)cc3)c(C3=C(c4cc(-c5cc6c(s5)C(C)(C)CCC6(C)C)sc4-c4cc5c(s4)C(C)(C)CCC5(C)C)C(F)(F)C(F)(F)C3(F)F)c2cc1OCCCOC
stdout: 1.07

stdin: Complete the entry with Ratio of chromophore remaining relative to S340 for CCOC(=O)CCCOc1cc2oc(-c3ccc(C(C)(C)C)cc3)c(C3=C(c4cc(-c5sc(C(C)(C)C)cc5C)sc4-c4sc(C(C)(C)C)cc4C)C(F)(F)C(F)(F)C3(F)F)c2cc1OCCCC(=O)OCC
stdout: 1.07

* * *

Please respond with reported Ratio of chromophore remaining relative to S340 for every item in the list.
# Method: Photostability: xenon arc weathering of chromophore solutions, LCMS analysis
# Type: physicochemical
# Measurement setup: 3 wt %; interpolated to 0.5 MJ/m^2 of energy exposure at 340 nm
Enter the number alone.

stdin: Fill in reported Ratio of chromophore remaining relative to S340 for this entry: COc1ccc2oc(-c3ccc(C(C)(C)C)cc3)c(C3=C(c4cc(-c5cc6c(s5)C(C)(C)CCC6(C)C)sc4-c4cc5c(s4)C(C)(C)CCC5(C)C)C(F)(F)C(F)(F)C3(F)F)c2c1
stdout: 1.06

stdin: Give the reported Ratio of chromophore remaining relative to S340 for this compound. COc1cc2oc(-c3ccc(C(C)(C)C)cc3)c(C3=C(c4cc(-c5ccc(C(C)(C)C)s5)sc4-c4ccc(C(C)(C)C)s4)C(F)(F)C(F)(F)C3(F)F)c2cc1OC
stdout: 1.00

stdin: Indicate its recorded Ratio of chromophore remaining relative to S340; the compound in question is COc1cc2oc(-c3ccc(C(C)(C)C)cc3)c(C3=C(c4cc(-c5ccc(C(C)(C)C)s5)sc4-c4sc(C(C)(C)C)cc4C)C(F)(F)C(F)(F)C3(F)F)c2cc1OC
stdout: 1.02

stdin: For the compound COc1cc2oc(-c3ccc(C(C)(C)C)cc3)c(C3=C(c4cc(-c5cccs5)sc4-c4cccs4)C(F)(F)C(F)(F)C3(F)F)c2cc1OC , give its measured Ratio of chromophore remaining relative to S340 value.
stdout: 1.02

stdin: Give recorded Ratio of chromophore remaining relative to S340. COc1ccc2c(C3=C(c4cc(-c5ccc(C(C)(C)C)s5)sc4-c4ccc(C(C)(C)C)s4)C(F)(F)C(F)(F)C3(F)F)c(-c3ccc(C(C)(C)C)cc3)oc2c1
stdout: 0.95

stdin: Find the measured Ratio of chromophore remaining relative to S340 of CC(C)(C)c1ccc(-c2oc3ccccc3c2C2=C(c3cc(-c4ccc(C(C)(C)C)s4)sc3-c3ccc(C(C)(C)C)s3)C(F)(F)C(F)(F)C2(F)F)cc1 and report it.
stdout: 0.93

stdin: Check the records and state Ratio of chromophore remaining relative to S340 for CC(=O)Oc1cc2oc(-c3ccc(C(C)(C)C)cc3)c(C3=C(c4cc(-c5cc(C(C)(C)C)cs5)sc4-c4cc(C(C)(C)C)cs4)C(F)(F)C(F)(F)C3(F)F)c2cc1OC(C)=O
stdout: 1.07

stdin: Identify Ratio of chromophore remaining relative to S340 associated with the compound COc1ccc2oc(-c3ccc(C(C)(C)C)cc3)c(C3=C(c4cc(-c5ccc(C(C)(C)C)s5)sc4-c4ccc(C(C)(C)C)s4)C(F)(F)C(F)(F)C3(F)F)c2c1
stdout: 0.71
